Assay: Plasma PK in dog
Format: in vivo
Conditions: IV, 2 mg/kg, read-out: Vss
READOUT: Vd (L/kg)

INSERT INTO assay_data (structure_as_smiles, experimental_result) VALUES
  ('Cc1ccc(O)c2c3c([nH]c12)CCNCC3', 5.15);

---

Target: UniProt:P28223
Sequence (P28223 whole entry): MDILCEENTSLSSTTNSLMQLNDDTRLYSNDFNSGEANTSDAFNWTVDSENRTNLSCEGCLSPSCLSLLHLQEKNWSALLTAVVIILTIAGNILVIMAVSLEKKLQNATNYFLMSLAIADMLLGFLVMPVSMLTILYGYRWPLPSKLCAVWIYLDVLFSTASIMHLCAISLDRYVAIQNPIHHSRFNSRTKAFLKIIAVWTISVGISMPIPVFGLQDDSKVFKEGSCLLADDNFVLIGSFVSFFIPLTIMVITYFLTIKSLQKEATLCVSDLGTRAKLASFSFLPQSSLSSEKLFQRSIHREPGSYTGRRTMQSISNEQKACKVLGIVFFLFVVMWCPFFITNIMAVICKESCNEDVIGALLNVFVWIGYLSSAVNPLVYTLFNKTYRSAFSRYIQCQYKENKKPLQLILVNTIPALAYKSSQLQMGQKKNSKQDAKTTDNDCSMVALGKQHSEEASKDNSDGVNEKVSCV
Experiment: 5-HT2A Gq dissociation BRET functional assay
Assay type: cell-based
Design: expressed in transfected cells; host or cells: HEK293T
Conditions: normalized to % 5-HT stimulation
# 5-HT2A BRET Eff per record follows
READOUT: 5-HT2A BRET Eff (%)

INSERT INTO measurements (compound, experimental_result) VALUES
  ('CN1CCc2c(n(C)c3cccc(O)c23)CC1', 87),
  ('Cc1ccc(O)c2c3c([nH]c12)C(C)CNCC3 (stereo not drawn)', 98),
  ('CN1CCc2[nH]c3cccc(O)c3c2CC1', 91);
